target: p110δ/p85α (Homo sapiens (Human)); assay: PI3K δ inhibition assay (TLC lipid kinase or HTRF)
Sequence (O00329 whole entry): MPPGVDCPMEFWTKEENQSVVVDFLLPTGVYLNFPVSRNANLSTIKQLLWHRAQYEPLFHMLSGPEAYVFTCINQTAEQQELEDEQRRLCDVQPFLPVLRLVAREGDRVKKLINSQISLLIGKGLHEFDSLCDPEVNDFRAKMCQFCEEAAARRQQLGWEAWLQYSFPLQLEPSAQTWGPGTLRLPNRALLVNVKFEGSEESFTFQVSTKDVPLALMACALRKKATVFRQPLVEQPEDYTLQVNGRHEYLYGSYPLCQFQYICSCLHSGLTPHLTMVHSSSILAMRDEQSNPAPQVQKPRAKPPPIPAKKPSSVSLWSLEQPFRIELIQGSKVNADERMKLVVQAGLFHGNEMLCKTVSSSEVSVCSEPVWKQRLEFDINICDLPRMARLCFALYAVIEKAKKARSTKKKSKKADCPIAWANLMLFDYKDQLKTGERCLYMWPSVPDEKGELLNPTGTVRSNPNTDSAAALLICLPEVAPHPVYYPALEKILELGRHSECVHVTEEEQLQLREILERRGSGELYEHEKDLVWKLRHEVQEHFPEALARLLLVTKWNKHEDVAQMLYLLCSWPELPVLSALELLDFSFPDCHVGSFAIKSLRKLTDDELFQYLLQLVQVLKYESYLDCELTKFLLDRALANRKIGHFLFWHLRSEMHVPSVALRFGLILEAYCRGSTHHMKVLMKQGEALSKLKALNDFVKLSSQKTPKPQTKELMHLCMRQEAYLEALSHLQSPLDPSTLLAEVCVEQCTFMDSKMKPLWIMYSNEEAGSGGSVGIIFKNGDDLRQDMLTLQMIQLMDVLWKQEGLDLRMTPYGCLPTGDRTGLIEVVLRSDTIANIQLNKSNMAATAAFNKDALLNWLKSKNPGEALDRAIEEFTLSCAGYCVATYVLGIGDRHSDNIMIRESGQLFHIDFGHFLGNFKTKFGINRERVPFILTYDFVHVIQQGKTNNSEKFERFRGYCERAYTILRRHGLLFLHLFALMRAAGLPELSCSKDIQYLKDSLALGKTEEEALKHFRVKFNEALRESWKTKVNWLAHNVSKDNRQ
Sequence (P27986 whole entry partner): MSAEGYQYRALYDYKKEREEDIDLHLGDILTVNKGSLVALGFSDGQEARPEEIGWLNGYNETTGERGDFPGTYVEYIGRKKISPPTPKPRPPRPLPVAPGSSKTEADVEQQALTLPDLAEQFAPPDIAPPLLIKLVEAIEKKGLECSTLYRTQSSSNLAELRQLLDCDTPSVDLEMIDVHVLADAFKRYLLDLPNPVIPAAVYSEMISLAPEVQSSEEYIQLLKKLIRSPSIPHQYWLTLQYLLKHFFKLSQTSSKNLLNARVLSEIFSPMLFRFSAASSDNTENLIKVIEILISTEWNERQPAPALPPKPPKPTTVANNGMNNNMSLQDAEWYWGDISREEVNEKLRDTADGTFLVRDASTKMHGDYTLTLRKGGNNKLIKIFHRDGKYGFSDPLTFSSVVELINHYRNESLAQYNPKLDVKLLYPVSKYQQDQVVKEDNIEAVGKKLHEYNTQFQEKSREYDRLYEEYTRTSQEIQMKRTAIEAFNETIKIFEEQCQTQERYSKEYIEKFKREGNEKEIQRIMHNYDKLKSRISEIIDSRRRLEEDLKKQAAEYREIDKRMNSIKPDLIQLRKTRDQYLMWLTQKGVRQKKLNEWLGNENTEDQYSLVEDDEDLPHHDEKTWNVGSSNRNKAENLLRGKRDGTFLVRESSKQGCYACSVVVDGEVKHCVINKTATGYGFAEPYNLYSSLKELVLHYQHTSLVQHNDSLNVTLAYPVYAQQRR
pIC50: −log10 of the molar value.
// pIC50 lookup, one value per entry

compound=Cc1ccccc1-c1ncccc1Cn1nc(-c2cccc(O)c2)c2c(N)ncnc21 attributemeasured=pIC50 recordedmeasurement="< 6.00"

Value of pIC50 reported for the compound C[C@@H](O)C#Cc1nn(Cc2cc3ccccc3nc2N2CCCC2)c2ncnc(N)c12 [Compound 48] is 6.00 to 7.00

Value of pIC50 reported for the compound `NC(=O)c1nn(Cc2cc3ccccc3nc2-c2ccccc2F)c2ncnc(N)c12` is 6.00 to 7.00

Value of pIC50 reported for the compound `Nc1ncnc2c1c(-c1cc(O)cc(F)c1)nn2Cc1cc2ccccc2nc1-c1ccccc1F` is > 7.00

Value of pIC50 reported for the compound `Nc1ncnc2c1c(/C=C1/SC(=O)NC1=O)nn2Cc1cc2ccccc2nc1-c1ccccc1F` is > 7.00
